molecular target: CALCRL-RAMP3 (Homo sapiens, UniProt O60896+Q16602); construct: ProLink (beta-galactosidase enzyme-donor fragment); assay: gpcrMAX PathHunter beta-arrestin; conditions: antagonist format, dose response
Sequence (Q16602 23-461): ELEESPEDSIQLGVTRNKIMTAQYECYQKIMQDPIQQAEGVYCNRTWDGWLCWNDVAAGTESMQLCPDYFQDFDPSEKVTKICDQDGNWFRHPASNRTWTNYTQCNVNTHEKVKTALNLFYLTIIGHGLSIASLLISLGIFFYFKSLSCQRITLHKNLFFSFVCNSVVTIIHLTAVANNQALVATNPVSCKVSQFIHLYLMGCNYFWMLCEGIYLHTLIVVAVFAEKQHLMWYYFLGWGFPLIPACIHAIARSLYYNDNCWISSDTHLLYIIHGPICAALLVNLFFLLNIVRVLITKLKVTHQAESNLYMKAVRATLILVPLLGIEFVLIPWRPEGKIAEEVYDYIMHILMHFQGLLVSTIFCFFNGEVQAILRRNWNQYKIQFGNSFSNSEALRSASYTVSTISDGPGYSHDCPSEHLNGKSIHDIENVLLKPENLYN
Sequence (O60896 24-148 partner): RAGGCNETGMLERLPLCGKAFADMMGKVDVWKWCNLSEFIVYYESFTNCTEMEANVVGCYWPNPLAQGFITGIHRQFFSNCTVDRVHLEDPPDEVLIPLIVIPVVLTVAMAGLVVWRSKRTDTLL
parameter: IC50 (µM)
Express it in µM; write the number only.

Incoming: Item `Cc1c(Cl)cccc1NC(=O)c1sc2nc3c(cc2c1N)C(=O)CCC3` has what recorded IC50?
Outgoing: 11.9
